Test system: mice
Protocol Text: Acute toxicity, oral route in mice (LD0)
Assay type: in vivo
Property Measured: LD0 (maximum dose not provoking any mortality in 8 days)

1) COc1ccc2c(c1)ncc1c(=O)n(-c3ccccc3)oc12 ≥ 200 mg/kg
2) O=c1c2cnc3ccc(Cl)cc3c2on1-c1ccccc1 ≥ 100 mg/kg
3) O=c1c2cnc3ccccc3c2on1-c1ccccc1 ≥ 400 mg/kg
4) O=c1c2cnc3ccc(F)cc3c2on1-c1ccccc1 ≥ 400 mg/kg
5) O=c1c2cnc3ccc(C(F)(F)F)cc3c2on1-c1ccccc1 ≥ 200 mg/kg
6) COc1ccc2ncc3c(=O)n(-c4ccccc4)oc3c2c1 200 mg/kg

Where these numbers come from: patent US4588731A
